# target.system: Ubiquitin-conjugating enzyme E2 N (Homo sapiens, UniProt P61088);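 note: Dose-response confirmation in a TR-FRET assay detecting UBC13-driven polyubiquitin chain formation, inhibition measured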
# Sequence (P61088 whole entry): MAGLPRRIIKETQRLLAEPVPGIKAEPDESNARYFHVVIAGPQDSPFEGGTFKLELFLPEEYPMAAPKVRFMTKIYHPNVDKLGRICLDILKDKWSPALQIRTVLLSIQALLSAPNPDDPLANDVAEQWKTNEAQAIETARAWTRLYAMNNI
# Assay type: functional
Structures can show the parent of a compound that is named as a salt. The source made the active and inactive calls.
Hi there, use one of these labels in your reply, thanks! active, inactive

Prompt: Which result was noted for this molecule in the test: CCc1nc2ccccc2c(C(=O)OCc2nc3ccccc3c(=O)[nH]2)c1C
Response: inactive

Prompt: Another molecule to check: Cc1ccc2c(c1)C1CN(C)CCC1N2C(=O)CCCN1C(=O)c2cccc3cccc(c23)C1=O (stereo not given)
Response: inactive

Prompt: Same question for CCCCC(CC)CNC(=N)NC(=N)NCCCCCCNC(=N)NC(=N)NCC(CC)CCCC (stereo not given) [ALEXIDINE HYDROCHLORIDE] please.
Response: active

Prompt: For C=CC(=O)Nc1ccc(N(C)c2ccnc(Nc3ccc(N4CCN(C)CC4)cc3)n2)cc1 then?
Response: inactive

Prompt: Continue with O=C(CCCn1c(=S)[nH]c2ccc(Br)cc2c1=O)N1CCN(c2ccccn2)CC1
Response: active

---

Protein target, amino acids: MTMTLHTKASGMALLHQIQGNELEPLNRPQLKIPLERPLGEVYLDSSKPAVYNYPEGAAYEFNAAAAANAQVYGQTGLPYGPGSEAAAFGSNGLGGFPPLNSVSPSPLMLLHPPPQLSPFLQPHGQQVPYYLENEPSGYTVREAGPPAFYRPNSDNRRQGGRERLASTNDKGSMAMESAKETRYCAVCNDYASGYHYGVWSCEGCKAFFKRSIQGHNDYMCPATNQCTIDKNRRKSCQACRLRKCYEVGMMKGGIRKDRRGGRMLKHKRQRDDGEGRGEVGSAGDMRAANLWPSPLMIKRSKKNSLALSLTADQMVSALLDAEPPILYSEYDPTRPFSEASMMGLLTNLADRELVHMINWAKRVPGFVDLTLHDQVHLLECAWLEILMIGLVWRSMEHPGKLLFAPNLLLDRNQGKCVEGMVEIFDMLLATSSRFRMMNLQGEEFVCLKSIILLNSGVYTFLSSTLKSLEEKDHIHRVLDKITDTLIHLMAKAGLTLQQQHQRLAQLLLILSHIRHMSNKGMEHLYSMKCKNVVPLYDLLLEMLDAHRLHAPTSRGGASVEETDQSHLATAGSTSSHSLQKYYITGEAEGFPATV
The source made the active and inactive calls.
For each of the molecules below, state its IC50.

Prompt: // lookup IC50 for C1CCC(c2nn3c(-c4[nH]nc5c4CCC5)nnc3s2)CC1
Response: > 50 µM (not active)

Prompt: Also check O=C(NCc1ccco1)c1cc2c(s1)CSC2
Response: 9.41 µM (active)

Prompt: Also O=C1NN(c2ccc(Cl)c(Cl)c2)C(=O)/C1=C/c1cccc(OC(=O)c2cccs2)c1 ?
Response: > 50 µM (not active)

Prompt: Also N=c1c(C(=O)NCc2ccc(F)cc2)cc2c(=O)n3ccccc3nc2n1Cc1cccnc1 ?
Response: 7.04 µM (active)

Prompt: What about this molecule? COc1cccc2cc(-c3cn4ccc(C)cc4n3)c(=O)oc12
Response: 7.85 µM (active)

Prompt: Next: CCOc1ccccc1/C=c1\sc2nc(-c3ccco3)nn2c1=O
Response: > 50 µM (not active)

Prompt: // next record CCOC(=O)c1[nH]c2c(c1C)C(=O)CC(c1ccco1)C2 (configuration not stated)
Response: 30.3 µM (not active)
